Collected AUC(0-inf) values appear next to each entry.
- ASSAY TEXT: In vivo pharmacokinetics, plasma and brain, IP 10 mg/kg
- Design: species or system C57BL/6 mice
- ASSAY CONDITIONS: male, C57BL/6; Plasma IP 10 mg/kg fed, mouse, mean
The reply should contain only the number, in µg·h/mL.

compound="COc1ccc(OCC2c3cccn3CC(=O)N2Cc2cccc(C(F)(F)F)c2)cc1 (racemic)" units_symbol=µg·h/mL numeric_readout=0.76

Turning now to a further record.
QUERY: Given the compound COc1ccc(OCC2c3cccn3CCN2C(=O)c2cccc(Cl)c2)cc1 (centres unmarked) , what is its reported AUC(0-inf)?
RESULT: 0.856
